Here the recorded GI50 is given for each entry.
tested on: EKVX; assay: NCI tumour cell line growth inhibition, 48 h
The source made the active and inactive calls. Cut-off read from the data, not from the text of the source: active = GI50 up to about 1.1 µM and inactive = higher.

// solved cases for GI50 follow
# compound, GI50
records = [
    ("CCOC(=O)C1=C(C)N(c2ccc(C)cc2)C2=C(C(=O)N(c3ccccc3)C2c2ccccc2)C1c1ccccc1 (stereo not given)", "> 25 µM (inactive)"),
    ("CCSc1nc(=S)n(-c2ccccc2)c(C)c1C(C)=O", "> 100 µM (inactive)"),
    ("CCCCNC(=S)Nc1nc(C(=O)NNC(=S)NCc2ccccc2)cs1", "42.8 µM (inactive)"),
]

Report the value of GI50 obtained on EKVX for CC(C)C(=O)Cc1ccc2ccccc2n1 . 83.4 µM (inactive)

Please look at CC(C)(Oc1ccc(Cl)cc1)C(=O)N(C(=O)N1CCC(c2ccccc2)CC1)c1ccccc1 and tell me its recorded GI50 on EKVX. 11.1 µM (inactive)

Report the value of GI50 obtained on EKVX for O=C1C(Cl)C2(CC(/C=C/c3cccs3)=NN2c2cccc(S(=O)(=O)O)c2)N1c1nc2ccccc2s1 (stereo not given) . 24.2 µM (inactive)

Under EKVX: report GI50 of N=C(N)NS(=O)(=O)c1ccc(NNc2c3ccccc3nc3ccccc23)cc1 . 10.6 µM (inactive)

Please respond with reported GI50 (system EKVX) for C#CCC(O)c1ccc(OC)c(OCc2ccccc2)c1 (stereo not given) . 56.2 µM (inactive)

Write down the reported GI50 (system: EKVX) of Cc1c(N2C(=O)C(Cl)C2/C=C/c2ccccc2)c(=O)n(-c2ccccc2)n1C (stereo not given) 6.41 µM (inactive)

GET GI50 where system = EKVX and item = Nc1nc(O)c2[nH]cnc2[n+]1[O-] > 100 µM (inactive)

----------
test system: SK-MEL-28; test: NCI tumour cell line growth inhibition, 48 h
Calls of active or inactive are those of the source. No stated cut-off is given here; in the data, active = GI50 up to about 1.1 µM and inactive = higher.
Choose the fitting class; nothing outside active, inactive is accepted.

Test call for this compound, please: CCOC(=O)C1=NOC2(C=C(Br)C(=O)C(Br)=C2)C1 inactive

Please let me know the test result on file for COc1cc2nc(Cl)nc(NS(=O)(=O)c3cc4ccccc4s3)c2cc1OC . active

Dear colleague, could you share the recorded outcome for Brc1cc(CCOC2CCCCO2)c(-c2sccc2CCOC2CCCCO2)s1 (stereo not given) when you have a moment? inactive

# fetch the recorded call for COc1cc(C2c3cc4c(cc3[C@@H](Nc3cccc(CO)c3)C3COC(=O)[C@H]23)OCO4)cc(OC)c1O (stereo not given in full) here inactive

Check the results log: what was the call for N#C[C@@H](c1ccccn1)c1ncccc1[N+](=O)[O-] ? inactive

Just curious, what result did CC(=O)Oc1cc(C)c(OC(C)=O)c2c1[C@H]1CC[C@]3(C)[C@@H](OC(C)=O)CC[C@H]3[C@@H]1CC2 get here? inactive

----------
test system: CAKI-1; assay: NCI tumour cell line growth inhibition, 48 h
The source made the active and inactive calls. No stated cut-off is given here; in the data, active = GI50 up to about 1.1 µM and inactive = higher.
The categories you may choose from are T for active, F for inactive

Worked examples follow.
# molecule, answer label
rows = [
    ("CS(=O)(=O)Nc1ccc2ccccc2c1", "F"),
    ("COc1cc2oc(-c3ccc4c(c3)OCO4)c(OC)c(=O)c2c(O)c1OC", "F"),
]

Kindly provide the recorded test outcome for the following molecule: O=C1C2C=CC(n3[nH]c(=O)n(Cc4ccccc4)c3=O)CC2C(=O)N1c1cccc(Cl)c1 (stereo unspecified) F

What did the test return for O=C(NC(C(F)(F)F)(C(F)(F)F)P(=O)(c1ccccc1)c1ccccc1)C(C(F)(F)F)C(F)(F)F ? T

Just curious, what result did C=CCCON(C(=O)OC(C)(C)C)c1ccccc1 get here? F

// param item: COC(=O)c1cc(NC(=O)Cn2c3ccccc3c3ccccc32)cn1C ; yields the recorded call F

----------
test system: RXF 393; assay: NCI tumour cell line growth inhibition, 48 h
Active and inactive are the calls of the source. No stated cut-off is given here; in the data, active = GI50 up to about 1.1 µM and inactive = higher.
reported property: GI50

Past entries and their recorded results:
# molecule, GI50
records = [
    ("CCN(CC)CCO[Si](OCCN(CC)CC)(OCCN(CC)CC)OCCN(CC)CC", "> 100 µM (inactive)"),
    ("C=CCOC(=O)[C@@H]1C[C@@H](OC(C)(C)C)CN1C(=O)[C@@H]1[C@H]2OC(C)(C)O[C@H]2CN1C(=O)OCC1c2ccccc2-c2ccccc21", "10.2 µM (inactive)"),
    ("COC(=O)C1(Cc2ccc3c(c2)CCC3)Cc2ccc3c(c2C1O)CCC3 (stereo not given)", "14.5 µM (inactive)"),
    ("CC(CCCOC(c1ccccc1)(c1ccccc1)c1ccccc1)OC(=O)Nc1ccccc1 (stereo not given)", "12.8 µM (inactive)"),
    ("Nc1nc(O)c2[nH]cnc2[n+]1[O-]", "> 100 µM (inactive)"),
    ("O=C(NC(Cc1ccc(Cl)cc1)C(=O)O)c1ccc(I)cc1 (stereo not given)", "> 100 µM (inactive)"),
    ("CC(=O)N1[C@H](C(=O)O)CS[C@H]1c1ccc(F)cc1", "> 100 µM (inactive)"),
    ("CCCC1(N2C(=O)c3ccc4c5c(ccc(c35)C2=O)N(C2(CCC)CCCCC2)C4=O)CCCCC1", "> 100 µM (inactive)"),
]

# input for lookup
Give reported GI50 value for CCOC(=O)C1=C(C)N(c2ccc(C)cc2)C2=C(C(=O)N(c3ccccc3)C2c2ccccc2)C1c1ccccc1 (stereo not given) 0.558 µM (active)

----------
// values below are reported GI50
system: MDA-N; assay: NCI tumour cell line growth inhibition, 48 h
Calls of active or inactive are those of the source. No stated cut-off is given here; in the data, active = GI50 up to about 1.1 µM and inactive = higher.

Below, each entry is followed by its recorded GI50 result.
# entry smiles, reported property, result
data = [
    ("Oc1[nH]c(NCc2ccc(Cl)cc2)nc2ncnc1-2", "GI50", "> 100 µM (inactive)"),
    ("Oc1ccnc(SCc2ccc(Cl)cc2)n1", "GI50", "> 100 µM (inactive)"),
    ("COc1cc([N+](=O)[O-])c(S(=O)(=O)O)cc1NS(=O)(=O)c1ccc(C)cc1", "GI50", "> 100 µM (inactive)"),
    ("CCOC(=O)C(=C(SC)SC)c1nn2c(=O)cc(C)nc2s1", "GI50", "16.4 µM (inactive)"),
    ("Sc1ncc(-c2cncc(-c3cnc(S)nc3)n2)cn1", "GI50", "> 100 µM (inactive)"),
]

Could you please provide reported GI50 for COC(=O)N[C@@H]1C[C@H]2CC[C@]1(O[Si](C(C)C)(C(C)C)C(C)C)C(=O)C2 ? Thanks! 21.9 µM (inactive)

----------
Recorded GI50 values for a group of compounds are listed next.
system: RPMI-8226; assay: NCI tumour cell line growth inhibition, 48 h
Active and inactive are the calls of the source. No stated cut-off is given here; in the data, active = GI50 up to about 1.1 µM and inactive = higher.

# compound, GI50
data = [
    ("CCOc1ccccc1/N=C\\c1c2ccccc2cc2ccccc12", "15.5 µM (inactive)"),
    ("CC(/C=N\\NC(=S)N1CCCCC1)=N/NC(=S)N1CCCCC1", "2.32 µM (inactive)"),
    ("O=c1c2cccnc2[s+]([O-])n1Cc1ccccc1 (stereo unspecified)", "> 100 µM (inactive)"),
]

Given the compound O=C(O)CN1CCNCCN(CP(=O)(O)O)CC1 , write its reported GI50. 5.52 µM (inactive)

Answer with the recorded GI50 for the compound listed here: O=C(N/N=C/c1ccccc1)c1cccc2nc3ccccc3nc12 > 100 µM (inactive)

Please give measured GI50 of the following entry: Cn1c2ccccc2c(=O)c2c(O)cc3c(c21)C=CC1(CCCCC1)O3 > 10 µM (inactive)

Fill in GI50 for record COc1ccc(-c2cs/c(=N\c3ccccc3)n2CCCN(C)C)cc1 24.5 µM (inactive)

Tell me GI50 reported for CC(C)=NOC(=O)OC[C@H]1O[C@@H](n2cnc3c(N)ncnc32)C(O)C1O (stereo partly specified) 52 µM (inactive)

Using the record for C=C(CCC/C(C)=C/C=C/[C@@H](C)CCCc1ccoc1)C[C@@H]1OC(=O)[C@H](C)[C@@H]1O , state its measured GI50. 12.8 µM (inactive)

Look up and state reported GI50 for O=C1CCCC/C1=C\c1ccc([N+](=O)[O-])cc1 7.57 µM (inactive)

Give the value of GI50 reported for the following: Cc1c(CN2CCOCC2)c(CN2CCOCC2)c(C)n1-c1ccc(Cl)cn1 > 100 µM (inactive)

----------
tested on: OVCAR-4; assay: NCI tumour cell line growth inhibition, 48 h
Active and inactive are the calls of the source. Cut-off read from the data, not from the text of the source: active = GI50 up to about 1.1 µM and inactive = higher.
reported property: GI50

# annotated cases, reported GI50 shown
# compound, GI50
rows = [
    ("O=c1oc2ccccc2c(Nc2ccc3c(c2)Sc2ccccc2O3)c1[N+](=O)[O-]", "25 µM (inactive)"),
    ("O=C(OCc1ccccc1)N1CCNCCNCCN(C(=O)OCc2ccccc2)CCNCC1", "41 µM (inactive)"),
    ("O=C(NC(Cc1ccc(Cl)cc1)C(=O)O)c1ccc(I)cc1 (stereo unspecified)", "> 100 µM (inactive)"),
    ("C=C1CC(CNc2cc(Cl)nc(N)n2)C1", "57.1 µM (inactive)"),
    ("COC1=CC(=O)[C@@]2(C)C(C)[C@H](c3ccccc3)[C@H]2C1=O (stereo partly specified)", "> 100 µM (inactive)"),
]

Now for another entry.
Answer with the recorded GI50 for the compound listed here: Cc1nc2ccccc2nc1N1CCCC1 > 100 µM (inactive)
